Known self-cleavage of a selection of variants
B1: LINE1-full (parent)
chain: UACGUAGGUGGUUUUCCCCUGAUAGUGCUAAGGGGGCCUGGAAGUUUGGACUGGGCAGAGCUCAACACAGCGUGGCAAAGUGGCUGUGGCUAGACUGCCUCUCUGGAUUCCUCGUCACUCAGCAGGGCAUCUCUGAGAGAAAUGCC

Variants of: B1
Assay: self-cleavage, relative activity (ratio to wild type); higher = more cleavage; in vitro, sequencing; the parent is a self-cleaving ribozyme
readout: self-cleavage

mutation_name | result
U52A A65U | 0.21
A107U A124G | 1.29
G11A G126A | 1.2
C101U A107G | 1.73
U45C U115G | 2.1
A22G U115C | 1.18
C38U U115C | 1.6
A42G C66U | 0.01
G36A A50U | 1.16
C3U A6U | 0.2
A57U G135U | 0.08
U1A U20A | 0.81
U1C U102A | 0.25
A129C G135A | 2.11
G72A C90G | 0.03
A57G G89A | 0.04
U9A U20C | 0.88
A64C U81A | 0.44
